# Test system: MS2 coat protein
# Protocol notes: apparent KD of MS2 coat protein; designed switch direction (-1 OFF switch, 1 ON switch): 1; higher = weaker reporter binding
# Test context: input ligand: microRNA oligo, concentration not stated

{"columns": ["Input sequence", "apparent KD of MS2 coat protein [nM]"],
 "data": [
  ["UAGGAGAGUAGAACAUGAGGAUCACCCAUGUAACCUCAUGUAUAGGAUAUGUUAAGAGUAGUAGAACAGAAGGAUAAGUAGGAU [Default title] (Eterna round: R96, puzzle: Same State NG 3)", 494],
  ["GCUCGAUGAGCUGUUUACAUGAGGAUCACCCAUGUAGAUGCGGAGGAUAUCUACGUGCUUUAUGUAGAGAAGGCCGUAUCGAGC [SameState NG3 #81] (Eterna round: R96, puzzle: Same State NG 3)", 22.2],
  ["UAGGAACAUGAGGAUCACCCAUGUACCUCAUAUGGAGAAACACAGGAUAUGCUGAGGGAAACACAGCAGAAGGGUGAAGAGAGG [Default title] (Eterna round: R96, puzzle: Same State NG 3)", 27.1],
  ["GAGAGAGGGUGAGGAUAUGCAGUAAUAAUGAUAGCAGAAGGCACAGACAUGAGGAUCACCCAUGUGGGAAUAAUCCAGAGAGAG [Parity 2 - Jieux - Same State NG 1] (Eterna round: R96, puzzle: Same State NG 1)", 177]
]}

----------
In this section, each of the sequences is paired with its reported apparent KD of MS2 coat protein.
# System: MS2 coat protein
# Protocol notes: apparent KD of MS2 coat protein; designed switch direction (-1 OFF switch, 1 ON switch): -1; higher = weaker reporter binding
# Test context: Eterna round: R95; input ligand: microRNA oligo, concentration not stated

{"columns": ["Input sequence", "Readout units", "apparent KD of MS2 coat protein"],
 "data": [
  ["AAAAGGUCAGGAUAUUCAAGAAAAGAAAAGAAAAGAAAAGAGAAGAAGGGACAUGAGGAUCACCCAUGUAAAAG [Default title] (puzzle: Exclusion 4)", "nM", 18.9],
  ["AGUACUGACACGUUGGUGUUAGUACAAUAAGCUUGUGUUACAUGAGGAUCACCCAUGUCCUCAUAAGCUCGUCUUAU [salish99_TOv2_r2_095] (puzzle: Sensor v3, turn-off variant 2)", "nM", 38.4],
  ["UUCCAACGAGGAUAUCGAUGGUGGAACAUGAGGAUCACCCAUGUAUGAGAUAUUGUAGUUCGAGAAGGCGUUCAGU [JR_E5_Sub056] (puzzle: Exclusion 5)", "nM", 31.5],
  ["CGUUGAUGAGGAUAUCGAUGUUAGUACAUGAGGAUCACCCAUGUUAUCCAAGUGUCGUUUCGAGAAGGUAUUGGAC [LRO-Ex5-20] (puzzle: Exclusion 5)", "nM", 174],
  ["GCGUGACAUGAGGAUCACCCAUGUGAGGAUAUCUGGACACUCUUUAUUUUAGAUGUCCAGAGAAGGCACAUGCU [Ex1-3: 5Z] (puzzle: Exclusion 1)", "nM", 220]
]}

----------
# Tested on: MS2 coat protein
# Protocol notes: apparent KD of MS2 coat protein; designed switch direction (-1 OFF switch, 1 ON switch): 1; higher = weaker reporter binding
# Test context: input ligand: microRNA oligo, concentration not stated
In this section, each of the sequences is paired with its reported apparent KD of MS2 coat protein.
Experimental readout: apparent KD of MS2 coat protein (nM)

{"columns": ["Input sequence", "Tgt", "Readout units", "Experimental value"],
 "data": [
  ["GCACCUCGAUGAGGAUAUACAAGCGGAGAUUACAUGAGGAUCACCCAUGUGUGUCGCUUUCGAUGGUAGAAGGCAUACGAGGCA [Eternabot solution 14] (Eterna round: R96, puzzle: Same State NG 2)", "MS2 coat protein", "nM", 52.5],
  ["GUAGCAUACCGAGGAUAUUCAUAUUAACAUGAGGAUCACCCAUGUAUUUAGGCCAAAAGGCCUUGGGAGAAGGCGGAAUGCUAC [Xeonanis - 20 Mod7] (Eterna round: R96, puzzle: Same State NG 2)", "MS2 coat protein", "nM", 22.3],
  ["CCAACAUACAAUUUAAGAUCACAUGAGGAUCACCCAUGUAUGCAGGAUAUCAGCUCGUGUAGAGCUGAGAAGGGCAAUUUAAUU [SSNG3/1-A4] (Eterna round: R96, puzzle: Same State NG 3)", "MS2 coat protein", "nM", 193],
  ["GCGCAAUGAUGUGACAUGAGGAUCACCCAUGUAACCUCAUGUAAGGAUAUCGGGAAAAAAAAAACCGAGAAGGUAUGGUCACGC [AK SSNG3-V2-27.2] (Eterna round: R96, puzzle: Same State NG 3)", "MS2 coat protein", "nM", 61.4],
  ["GGACGAGACGCAGGAUAUGCGAAGAAGAAGGAAGCAGAAGGGCGUGUGGGACGACAUGAGGAUCACCCAUGUUCUCUGCGAGGA [ssng1 b] (Eterna round: R96, puzzle: Same State NG 1)", "MS2 coat protein", "nM", 116]
]}

Origin of the recorded values: the supplement of paper PMC9170038
